These entries and their values trace back to patent US8728980B2.

assay-system: Polycomb protein chromodomain (Drosophila melanogaster, UniProt P26017)
Construct: The chromodomain (a.a. 1-90) of Polycomb protein was expressed as GST-tagged fusion protein; made in house
Sequence (P26017 1-90): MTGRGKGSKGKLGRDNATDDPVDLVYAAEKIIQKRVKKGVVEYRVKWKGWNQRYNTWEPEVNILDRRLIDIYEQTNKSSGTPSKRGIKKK
test-method-notes: Peptide microarray binding of GST-tagged Polycomb chromodomain
Design: dose or concentration left out as unconfirmed
condition-details: Binder if at least two of three spots pass p-value cutoff 0.001 from background
Non-standard residues stand in square brackets, D forms with d. Primed or numbered codes have the meaning given here. No end group written: not given here. Me3 = trimethylation of the lysine side chain; Me3(3) = trimethyl (trimethylated lysine); Lys(Me3) = C[N+](C)(C)CCCC[C@H](N)C(=O)O
reported-property: Array Verification

input-sequence	result
NAARDNKKT (also: trimethylated Lys, site not given here)	NonBinder
EELDSLIKA (EELDSLI[Lys(Me3)]A)	NonBinder
GVIPHIHKS (GVIPHIHK(Me3(3))S)	NonBinder
GLGKGGAKR [9-residue histone peptide, H4_DROME, trimethylated lysine site 16]	NonBinder
DNIQGITKP (DNIQGIT[Lys(Me3)]P) [9-residue histone peptide, H4_DROME, trimethylated lysine site 31]	NonBinder
MAGGKAGKD (not fully specified (residue 8); also: trimethylated lysine, site not given here)	NonBinder
REIRRYQKS (REIRRYQK(Me3(3))S) [9-residue histone peptide, H3_DROME, trimethylated lysine site 56]	Binder
LARRGGVKR (LARRGGVK(Me3(3))R) [9-residue histone peptide, H4_DROME, trimethylated lysine site 44]	NonBinder
LATKAARKS [template histone H3 peptide L20 to S28 with trimethylated Lys27, reference compound]	Binder
EETRGVLKV (EETRGVL[Lys(Me3)]V) [9-residue histone peptide, H4_DROME, trimethylated lysine site 59]	NonBinder
TGGKAPRKQ (also: trimethylated Lys, site not given here) [9-residue histone peptide, H3_DROME, trimethylated lysine site 18]	NonBinder
GNASKDLKV (not fully specified (residue 8); also: trimethylated lysine, site not given here)	NonBinder
IHKSLIGKK (not fully specified (residue 8); also: trimethylated lysine, site not given here)	NonBinder
QAVLLPKKT (QAVLLPKK(Me3)T)	NonBinder
GGAKRHRKV (also: trimethylated lysine, site not given here) [9-residue histone peptide, H4_DROME, trimethylated lysine site 20]	Binder

====

assay-system: Polycomb protein chromodomain (Drosophila melanogaster)
Construct: The chromodomain (a.a. 1-90) of Polycomb protein was expressed as GST-tagged fusion protein; made in house
Sequence (P26017 1-90): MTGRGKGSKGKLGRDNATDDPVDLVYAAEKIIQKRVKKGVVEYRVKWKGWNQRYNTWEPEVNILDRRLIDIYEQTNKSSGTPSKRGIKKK
test-method-notes: Peptide microarray binding of GST-tagged Polycomb chromodomain
Parameters: dose or concentration left out as unconfirmed
condition-details: Binder if at least two of three spots pass p-value cutoff 0.001 from background
Primed or numbered codes have the meaning given here. No end group written: not given here. Me3 = trimethylation of the lysine side chain; Me3(3) = trimethyl (trimethylated lysine)
reported-property: Array Verification

input-sequence	result
STELLIRKL (STELLIRK(Me3(3))L) [9-residue histone peptide, H3_DROME, trimethylated lysine site 64]	NonBinder
RIHRLLRKG (RIHRLLRK(Me3(3))G)	Binder
APATGGVKK (not fully specified (residue 8); also: trimethylated lysine, site not given here) [9-residue histone peptide, H3_DROME, trimethylated lysine site 36]	NonBinder
REIAQDFKT (REIAQDFK(Me3(3))T) [9-residue histone peptide, H3_DROME, trimethylated lysine site 79]	NonBinder
SRLAHYNKR (SRLAHYNK(Me3(3))R)	NonBinder
PDTGISSKA (PDTGISSK(Me3(3))A)	NonBinder
IQAVLLPKK (not fully specified (residue 8); also: trimethylated lysine, site not given here)	Binder
KRVTIMPKD (not fully specified (residue 8); also: trimethylated lysine, site not given here) [9-residue histone peptide, H3_DROME, trimethylated lysine site 122]	NonBinder
IYIYKVLKQ (also: trimethylated Lys, site not given here)	NonBinder
DSGKAKAKA (not fully specified (residue 8); also: trimethylated lysine, site not given here)	Binder
PRKQLATKA (PRKQLATK(Me3)A) [9-residue histone peptide, H3_DROME, trimethylated lysine site 23]	Binder
ARKSTGGKA (also: trimethylated Lys, site not given here) [9-residue histone peptide, H3_DROME, trimethylated lysine site 14]	NonBinder
PATGGVKKP (not fully specified (residue 8); also: trimethylated lysine, site not given here) [9-residue histone peptide, H3_DROME, trimethylated lysine site 37]	NonBinder
